B1: glmS ribozyme (parent)
chain: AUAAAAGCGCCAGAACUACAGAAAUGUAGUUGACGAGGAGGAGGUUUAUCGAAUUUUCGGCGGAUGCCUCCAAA

# Variants of: B1
# run-description: self-cleavage kobs at 10000 uM GlcN6P; higher = faster cleavage; RNA array
# protocol-conditions: with glucosamine-6-phosphate
This sample holds only a part of the variants without activity.
Below is a list of entries, each paired with its recorded self-cleavage kobs at 10000 uM GlcN6P value.
outcome-measure: self-cleavage kobs at 10000 uM GlcN6P (s⁻¹)

AUAAAAACGCCAGAACUACAGAAAUGUACUUGACGAGGAGGAGGUUUAUCGAAUUUGCGGCGGAUGCCUGCAAA [G7A G29C U57G C70G]; 0.000678
AUAAAAGCGCCAGAAUUACAGAAAUGUAGUUGACGAGGAGGUGGUUUAUCGAAUUUUCGGCGGAUGCCUCCAAA [C16U A42U]; 0.000115
AUAAAAGCGCCAGAGCUACAGAAAUGUAGUUGACGAGGAGGAGGUUCAUCGAAUUUUCGGCGGAUGCCUCCAAA [A15G U47C]; 0.00476
AUAAAAGCGCCAGAACUACAGAAAUGUAGUUGUCGAGGAGGAGGUUUAUCGAAUUUUCGGCGGAUGCCUUCAAA [A33U C70U]; 0.0001
AUAAAAGCGCCAGAACUACAGAAAUGUAGUCGACGAGGAGGGGGUUUAUCGAAUUUUCGGCGGAUGCCUCCAAA [U31C A42G]; 0.00754
AUAAAAGCGCCAGAACUACAGAAAUGUAGUUGACGAGGAGGAGGUUGAUCGAAUUUUCGGCGGAUGCCACCAAA [U47G U69A]; 8.6e-05
AUAAAAGCGCCAGAACUACAGAAAUGUAGUUGACGAGGUGGAGGUUUAUCGAAUUUUCGGCGGAUCCCUCCAAA [A39U G66C]; 0.0065
AUAAAAGCGCCUGCACUACAGAAAUGUAGUUGACGAGGAGGAGGUUUAUCGAAUUUUCGGCGGAUGCCUCCAAA [A12U A14C]; 0.00546
AUAAAAGCGCCAGAAGUACAGAAAUGUAGUUGACGAGGAGGAGGUUUAUCGACUUUUCGGCGGAUGCCUCCAAA [C16G A53C]; 0.000599
AUAAAAGCGCCAGAACUACAGAAAUGUAGUUGACGACGAGGAGGUUUAUCGAAUCUUCGGCGGAUGCCUCCAAA [G37C U55C]; 5.46e-05
AUAAAAGCGCCAGAACUACAGAAAUGUAGUUGACGAGGAGGAGGUUUAUCGAAUUUUCGGCGGAUGCCUUCAAA [C70U]; 0.0554
AUAAAAGCGCCCGAACUACAGAAAUGUAGUCGACGAGGGGGAGGUUUAUCGAAUUUUCGGCGGAUGCCUCCAAA [A12C U31C A39G]; 0.00124
AUAAAAGCGCCACAACUACAGAAAUGUAGCUGACGAGGAGGAGGUUAAUCGAAUUUUCGGCGGAUGCCUCCAAA [G13C U30C U47A]; 8.1e-05
AUAAAAGCGCUAGAACUACAGAAAUGUAGCUGACGAGGAGGAGGUUUAUCGAAUUUUCGGCGGAUGCCUCCAAA [C11U U30C]; 0.000465
AUAAAAGCGCCAGAACUACAGAAAUGUAGUUGACGAGGACGAGGUUUAUCGACUUUUCGGCGGAUGCCUCCAAA [G40C A53C]; 0.000652
AUAAAAGCGCCAGUACUACAGAAAUGUAGUCGACGAGGCGGAGGUUUAUCGAAUUUUCGGCGGAUGCCUCCAAA [A14U U31C A39C]; 0.000464
AUAAAAGCGCCAUAACUACAGAAAUGUAUUUGACGAGGAGGAGGUUUAUCGAAUUUUCGGCGGAUGCCUCCAAA [G13U G29U]; 0.000234
AUAAAAGCGCCAGAACUACAGAAAUGUAGUUGACGAGGAGGAGGUUUAUCGAAUCUUCAGCGGAUGCCUCCAAA [U55C G59A]; 7.97e-05
AUAAAAGCGCCUGAACUACAGAAAUGUAGUUGACGAGGAGGAGGUUGAUCGAAUUUUCGGCGGAUGCCUGCAAA [A12U U47G C70G]; 0.000201
AUAAAAGCGCCAGAACUACAGAAAUGUAGUUGACGACGAGGAGGUUUAUCGAAUGUUCGGCGGAUGCCUCCAAA [G37C U55G]; 3.62e-05
AUAAAAGCGCCAUAACUACAGAAAUGUAGUUCACGAGGAGGAGGUUUAUCGAAUUUUCGGCGGAUGCCUCCAAA [G13U G32C]; 0.000328
AUAAAAGCGCCACAACUACAGAAAUGUAGUAGACGAGGAGGAGGUUUAUCGAGUUUUCGGCGGAUGCCUCCAAA [G13C U31A A53G]; 0.000294
AUAAAAGCGCCAGAACUACAGAAAUGUAAUUGACGAGGAGGGGGUUUAUCGAAUUUUCGGCGGAUGCCUCCAAA [G29A A42G]; 0.00757
AUAAAAGCGCCAGAACUACAGAAAUGUAGUUGACGAGGAGGAGGUUUAUCGAAUUGUCGGCGGAUGGCUCCAAA [U56G C67G]; 0.00081
AUAAAAGCGCCAUAACUACAGAAAUGUAGUUGACGAGGAGGAGGUUUAUCGAAAUCUCGGCGGAUGCCUCCAAA [G13U U54A U56C]; 0.000163
AUAAAAGCGCCAGAACUACAGAAAUGUAGUUGACGAGGAGGAGGUUUAUCGAAUGUUCGGCGGAUGCCUCCAAA [U55G]; 0.0436
AUAAAAGCGCCAAAACUACAGAAAUGUAGUUGACGAGGAGAAGGUUUAUCGAAUUUUCGGCGGAUGCCUCCAAA [G13A G41A]; 5.25e-05
AUAAAAGCGCCAGAACUACAGAAAUGUAGUGGACGAGGAUGAGGUUUAUCGAAUUUUCGGCGGAUGACUCCAAA [U31G G40U C67A]; 6.16e-05
AUAAAAGCGCCCGAACUACAGAAAUGUAGUUGACGAGGAGGAGGUUUAUCGAAUUUUCGGCGGAUGCCUUUAAA [A12C C70U C71U]; 0.000154
